Test: Long-term stability in spiked pooled human plasma
Test context: validation standard ULOV
Measurement type: Long-term stability, 3 month, -20°C Accuracy [%]

Input smiles	Obs value
CCN(CC)CCNC(=O)c1c(C)[nH]c(/C=C2\C(=O)Nc3ccc(F)cc32)c1C	122.5%
COc1cc(N2CCC(N3CCN(C)CC3)CC2)ccc1Nc1ncc(Cl)c(Nc2ccccc2P(C)(C)=O)n1	102.6%
CCC1=C[C@@H]2CN(C1)Cc1c([nH]c3ccccc13)[C@@](C(=O)OC)(c1cc3c(cc1OC)N(C)[C@H]1[C@@](O)(C(=O)OC)[C@H](OC(C)=O)[C@]4(CC)C=CCN5CC[C@]31[C@@H]54)C2	92.2%
CCCS(=O)(=O)Nc1ccc(F)c(C(=O)c2c[nH]c3ncc(-c4ccc(Cl)cc4)cc23)c1F	89.5%
CNC(=O)c1cc(Oc2ccc(NC(=O)Nc3ccc(Cl)c(C(F)(F)F)c3)cc2)ccn1	90.5%
COc1cc2ncnc(Nc3ccc(F)c(Cl)c3)c2cc1OCCCN1CCOCC1	99.2%
CC(C)(C)c1nc(-c2cccc(NS(=O)(=O)c3c(F)cccc3F)c2F)c(-c2ccnc(N)n2)s1	96.3%

Values compiled from paper PMC8699473.
